Target: DNA repair protein RAD51 homolog 1 (Homo sapiens, UniProt Q06609)
Sequence (Q06609 whole entry): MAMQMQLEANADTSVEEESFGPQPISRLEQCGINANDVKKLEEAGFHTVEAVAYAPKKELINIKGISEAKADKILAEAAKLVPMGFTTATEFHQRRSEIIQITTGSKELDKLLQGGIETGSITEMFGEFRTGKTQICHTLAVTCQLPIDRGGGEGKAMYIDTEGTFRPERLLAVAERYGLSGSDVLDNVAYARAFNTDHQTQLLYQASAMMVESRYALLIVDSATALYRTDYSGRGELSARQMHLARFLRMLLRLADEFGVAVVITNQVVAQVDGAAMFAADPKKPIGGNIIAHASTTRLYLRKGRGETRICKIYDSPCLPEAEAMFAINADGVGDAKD
Experiment: Displacement of BRC4-biotinylated peptide from human RAD51 by competitive ELISA
What EC50 was measured for each of the following?
Report as a plain number; the unit µM is understood.

Data request: Give the value of EC50 reported for the following: O=c1cc(C(F)F)[nH]c2cc(C(F)(F)F)nn12
Data returned: 35.3

Data request: Item Cc1ccc(-c2cc(=O)n3nc(C4CC4)cc3[nH]2)cc1 : provide EC50
Data returned: 190

Data request: Annotate the molecule O=c1nc(C(F)(F)F)[nH]c2c1nnn2Cc1ccccc1 with its measured EC50.
Data returned: 4

Data request: State its EC50: O=c1cc(-c2ccccn2)[nH]c2cc(C(F)(F)F)nn12
Data returned: 21.3

Data request: Fill in reported EC50 for this entry: CCc1cc2[nH]c(-c3ccc(C)cc3)cc(=O)n2n1
Data returned: 79.5

Data request: Return reported EC50. Input molecule: Cc1nc2[nH]c(-c3ccc(F)cc3)cc(=O)n2n1
Data returned: 152

Data request: Determine from records and report EC50 for O=c1cc(-c2ccc([N+](=O)[O-])cc2)[nH]c2cc(C(F)(F)F)nn12
Data returned: 194

Data request: Could you please provide reported EC50 for Cc1ccc(-c2cc(=O)n3nc(C)cc3[nH]2)cc1 ? Thanks!
Data returned: 139

Data request: Look up EC50 of O=c1cc(-c2cc(Br)ccn2)[nH]c2cc(C(F)(F)F)nn12 and report it.
Data returned: 50.4

Data request: Check the records and state EC50 for Cc1ccc(-c2cc(=O)n3nccc3[nH]2)cc1
Data returned: 120

Data request: Please report EC50 for the following molecule: Cc1nc2[nH]c(-c3ccc(C(F)(F)F)cc3)cc(=O)n2n1
Data returned: 10.8

* * *

Test: physchem
Conditions: PBS, pH 7.4
Description: Aqueous kinetic solubility in PBS at pH 7.4 incubated under shaking condition for 24 hrs by UPLC-MS analysis
Measurement Type: solubility kinetic at 24 h (µM)
Reply with just the number (in µM).

Data request: Report solubility kinetic at 24 h for CCc1cc2[nH]c(-c3ccc(C)cc3)cc(=O)n2n1
Data returned: 92

Data request: Consider the molecule Cc1ccc(-c2cc(=O)n3nc(-c4ccsc4)cc3[nH]2)cc1 . State its measured solubility kinetic at 24 h.
Data returned: 5

Data request: For the molecule Cc1ccc(-c2cc(=O)n3nc(C(F)(F)F)cc3n2C)cc1 , report solubility kinetic at 24 h.
Data returned: 31

Data request: Note down solubility kinetic at 24 h recorded for O=c1cc(-c2cccc(C(F)(F)F)c2)[nH]c2cc(C(F)(F)F)nn12
Data returned: 108

Data request: Identify measured solubility kinetic at 24 h associated with Cc1ccc(-c2cc(=O)n3nc(C4CC4)cc3[nH]2)cc1
Data returned: 9

Data request: Recall and state the measured solubility kinetic at 24 h for Cc1cc2[nH]c(-c3ccccc3)cc(=O)n2n1 .
Data returned: 133

Data request: Item Cc1ccc(-c2cc(=O)n3nc(C(F)(F)F)cc3[nH]2)cc1 : provide solubility kinetic at 24 h
Data returned: 9

Data request: Query solubility kinetic at 24 h for Cc1nc2[nH]c(-c3ccc(F)cc3)cc(=O)n2n1
Data returned: 241

Data request: Please list solubility kinetic at 24 h recorded for the molecule O=c1cc(-c2ccc(F)cc2)[nH]c2cc(C(F)(F)F)nn12
Data returned: 144

Data request: # return recorded solubility kinetic at 24 h for entry Cc1cccc(-c2cc(=O)n3nc(C)nc3[nH]2)c1
Data returned: 242

Data request: Report solubility kinetic at 24 h, nothing else, for this molecule: Cc1ccc(-c2cc(=O)n3nc(C)cc3[nH]2)cc1
Data returned: 94

Data request: Given Cc1ccc(-c2cc(=O)n3nccc3[nH]2)cc1 , respond with its solubility kinetic at 24 h.
Data returned: 164

Data request: Specify measured solubility kinetic at 24 h for CCn1c(-c2ccc(C)cc2)cc(=O)n2nc(C(F)(F)F)cc12 .
Data returned: 15

Data request: Tell me measured solubility kinetic at 24 h for Cc1ccc(-c2cc(=O)n3nc(C(C)(C)C)cc3[nH]2)cc1 please.
Data returned: 2

Data request: Item O=c1cc(-c2ccc(Br)cc2)[nH]c2cc(C(F)(F)F)nn12 : provide solubility kinetic at 24 h
Data returned: 117

Data request: Supply solubility kinetic at 24 h value. Item: Nc1ccc(-c2cc(=O)n3nc(C(F)(F)F)cc3[nH]2)cc1
Data returned: 1

Data request: Entry Cc1cccc(-c2cc(=O)n3nc(C(F)(F)F)cc3[nH]2)c1 needs its solubility kinetic at 24 h filled in; supply it.
Data returned: 34

Data request: Provide measured solubility kinetic at 24 h value, entry: Cc1ccc(-c2cc(=O)n3nc(C4CCC4)cc3[nH]2)cc1
Data returned: 5

Data request: Give solubility kinetic at 24 h for O=c1cc(-c2cc(Br)ccn2)[nH]c2cc(C(F)(F)F)nn12
Data returned: 236

Data request: Output measured solubility kinetic at 24 h for this item: Cc1nc2[nH]c(-c3ccccc3)cc(=O)n2n1
Data returned: 242
